# protocolDetails: Cytotoxicity evaluation (cell number in Coulter after 96 hours)
# Assay type: cell-based
# statedConditions: human, mt4 cells, maxima non cytotoxic doses (MNTD)
Answer each item with its documented MNTC at 96 h.

OC[C@@H]1CC[C@H](n2cnc3c(O)ncnc32)O1 [ddIno, 2',3'-didesoxy-inosine, reference compound]
≥ 1 mM

Lab note: Nc1ncnc2c1ncn2[C@H]1CC[C@@H](CO)O1 gave MNTC at 96 h of ≥ 1 mM

====

# protocolDetails: Cytotoxicity evaluation (cell number in Coulter after 96 hours)
# Format: cell-based
# statedConditions: human, mt4 cells, MNTD
I'd be grateful if you could share measured MNTC at 96 h for these entries.
Answers are plain numbers, in µM.

CCCCCC[C@H]([C@H](C)O)n1cnc2c(N)ccnc21 (relative stereo) [1-deaza-EHNA]
20
CCCCCC[C@H]([C@H](C)O)n1ccc2c(N)ncnc21 (relative stereo) [7-deaza-EHNA]
5
CCCCCC[C@H]([C@H](C)O)n1cnc2c(N)ncnc21 (relative stereo) [EHNA, 9-(erythro-2-hydroxy-3-nonyl) adenine]
10
CCCCCC[C@H]([C@H](C)O)n1cnc2c(N)cccc21 (relative stereo) [1,3-dideaza-EHNA]
5

# input for lookup
Query CCCCCC[C@H]([C@H](C)O)n1cnc2c(N)nccc21 (relative stereo) [3-deaza-EHNA] yields MNTC at 96 h of 10

Values compiled from patent EP0509470A2.
